- TEST SUMMARY: First-in-human Part 2 multiple ascending dose q.d. blood and urine PK
- Assay type: in vivo
- CONDITIONS USED: human, blood and urine, oral, 100 mg, 100 mg qd, Day 12; Median (Min-Max); read-out: Renal clearance
- Procedure: […] Pharmacokinetic samples were obtained in blood and evaluated in all subjects at all dose levels. The samples from placebo subjects were not analyzed. […] Compound (I) concentrations were determined in blood by a validated LC-MS/MS method.

COMPOUND SMILES	CL renal [mL/min]
C=CC(=O)N(C)CCOc1c(N)ncnc1-c1cc(F)cc(NC(=O)c2ccc(C3CC3)cc2F)c1C	21.1

meta.source: patent US12383556B2
